Ref: patent US20230406921A1

Recorded FACS (MFI), one value per entry.
SYSTEM_UNDER_TEST: CD47 on the surface of human red blood cells (human) (UniProt Q08722)
PROCEDURE_SUMMARY: FACS, hRBC, 500 nM

BINDER	FACS (MFI)
h140Hm13/h140Lm17 (antibody, V domains shown) VH: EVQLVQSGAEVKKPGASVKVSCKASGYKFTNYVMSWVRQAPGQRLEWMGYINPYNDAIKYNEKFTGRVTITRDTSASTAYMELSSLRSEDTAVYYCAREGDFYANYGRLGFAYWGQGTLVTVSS VL: DIQMTQSPSSLSASVGDRVTITCRASQDITNYLNWYQQKPGKAPKLLIYYTSRLQSGVPSRFSGSGSGTDYTFTISSLQPEDIATYFCQQGDTEPYTFGGGTKVEIK	689
h140Hm13/h140Lm18 (antibody, V domains shown) VH: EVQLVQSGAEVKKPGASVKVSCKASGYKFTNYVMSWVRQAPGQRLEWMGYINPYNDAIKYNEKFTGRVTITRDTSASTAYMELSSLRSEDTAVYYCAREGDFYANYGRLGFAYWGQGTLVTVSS VL: DIQMTQSPSSLSASVGDRVTITCRASQDITNYLNWYQQKPGKAPKLLIYYTSRLQSGVPSRFSGSGSGTDYTFTISSLQPEDIATYFCQQGDTNPYTFGGGTKVEIK	697
h140Hm13/h140Lm13 (antibody, V domains shown) VH: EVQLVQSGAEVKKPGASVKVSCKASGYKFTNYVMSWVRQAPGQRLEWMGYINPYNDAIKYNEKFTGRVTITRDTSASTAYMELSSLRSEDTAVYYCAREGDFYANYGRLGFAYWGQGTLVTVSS VL: DIQMTQSPSSLSASVGDRVTITCRASQDITNYLNWYQQKPGKAPKLLIYYTSRLHSGVPSRFSGSGSGTDYTFTISSLQPEDIATYFCQQGDTFPYTFGGGTKVEIK	1760
h140Hm13/h140Lm11 (antibody, V domains shown) VH: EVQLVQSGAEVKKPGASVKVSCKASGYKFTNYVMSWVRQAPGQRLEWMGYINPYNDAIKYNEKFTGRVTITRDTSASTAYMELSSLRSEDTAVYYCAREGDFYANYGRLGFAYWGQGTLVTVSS VL: DIQMTQSPSSLSASVGDRVTITCRASQDITNYLNWYQQKPGKAPKLLIYYTSRLSSGVPSRFSGSGSGTDYTFTISSLQPEDIATYFCQQGDTRPYTFGGGTKVEIK	789
